Listed next: entries and their corresponding clearance.
- measurement protocol: Clearance in mouse at 0.5 mg/kg, iv
- Type: ADME, organism-based
- experimental conditions: in vivo
# output: bare number, implied unit mL/min/kg

C[C@H](Nc1cc(Cl)nc2c1cnn2[C@@H]1O[C@H](COP(=O)(O)CP(=O)(O)O)[C@@H](O)[C@H]1O)c1ccc(F)cc1 ... 0.25
C[C@H](Nc1nc(Cl)nc2c1cnn2[C@@H]1O[C@H](COP(=O)(O)CP(=O)(O)O)[C@@H](O)[C@H]1O)c1ccccc1 ... 1.27

Attention now turns to another entry.
Entry "C[C@H](Nc1cc(Cl)nc2c1cnn2[C@@H]1O[C@H](COP(=O)(O)CP(=O)(O)O)[C@@H](O)[C@H]1O)c1ccccc1F" — recorded clearance = 0.417

Numbers sourced from ChEMBL document CHEMBL4665688.
